Hello, the source for this data is ChEMBL document CHEMBL3351535, in case you need it.

- experimental-protocol: Cytotoxicity against african green monkey Vero cells after 2 days by resazurin assay
- Type: cell-based
- condition-label: chlorocebus sabaeus
// classify: if (CC50 at 48 h < 400 µM) y else n

>  <query-smiles>
CC(=O)OC[C@H]1O[C@@H](CC(=O)/C=C/c2cccc(NC(=O)Nc3ccccc3)c2)[C@H](OC(C)=O)[C@@H](OC(C)=O)[C@@H]1OC(C)=O

>  <label>
y

$$$$

CC50 at 48 h strictly < 400 µM for this molecule? `O=C(/C=C/c1ccc(NC(=O)Nc2ccc3ccccc3c2)cc1)C[C@@H]1O[C@H](CO)[C@@H](O)[C@H](O)[C@H]1O` n

CC50 at 48 h strictly < 400 µM for this molecule? `O=C(/C=C/c1cccc(NC(=S)Nc2ccccc2)c1)C[C@@H]1O[C@H](CO)[C@@H](O)[C@H](O)[C@H]1O` y

CC50 at 48 h strictly < 400 µM for this molecule? `O=C(/C=C/c1cccc(NC(=S)Nc2ccccc2)c1)C[C@@H]1O[C@H](CO)[C@@H](O)[C@H](O)[C@@H]1O` y

CC50 at 48 h strictly < 400 µM for this molecule? `O=C(/C=C/c1ccc(NC(=S)Nc2ccccc2)cc1)C[C@@H]1O[C@H](CO)[C@@H](O)[C@H](O)[C@H]1O` y

CC50 at 48 h strictly < 400 µM for this molecule? `COc1ccc(NC(=O)Nc2cccc(/C=C/C(=O)C[C@@H]3O[C@H](COC(C)=O)[C@@H](OC(C)=O)[C@H](OC(C)=O)[C@H]3OC(C)=O)c2)c([N+](=O)[O-])c1` n

CC50 at 48 h strictly < 400 µM for this molecule? `CC(=O)OC[C@H]1O[C@@H](CC(=O)/C=C/c2cccc(NS(=O)(=O)c3ccc(C)cc3)c2)[C@@H](OC(C)=O)[C@@H](OC(C)=O)[C@@H]1OC(C)=O` y

CC50 at 48 h strictly < 400 µM for this molecule? `CC(=O)OC[C@H]1O[C@@H](CC(=O)/C=C/c2cccc(NC(=S)Nc3ccccc3)c2)[C@@H](OC(C)=O)[C@@H](OC(C)=O)[C@@H]1OC(C)=O` y

CC50 at 48 h strictly < 400 µM for this molecule? `O=C(/C=C/c1ccc(NC(=O)Nc2ccccc2)cc1)C[C@@H]1O[C@H](CO)[C@@H](O)[C@H](O)[C@H]1O` n

CC50 at 48 h strictly < 400 µM for this molecule? `COc1ccc(NC(=O)Nc2ccccc2)c([N+](=O)[O-])c1` y

CC50 at 48 h strictly < 400 µM for this molecule? `Cc1ccc(S(=O)(=O)Nc2cccc(/C=C/C(=O)C[C@@H]3O[C@H](CO)[C@@H](O)[C@H](O)[C@H]3O)c2)cc1` y

CC50 at 48 h strictly < 400 µM for this molecule? `Cc1ccc(S(=O)(=O)Nc2cccc(/C=C/C(=O)C[C@@H]3O[C@H](CO)[C@@H](O)[C@H](O)[C@@H]3O)c2)cc1` n

CC50 at 48 h strictly < 400 µM for this molecule? `O=C(Nc1ccccc1)Nc1ccccc1` y

CC50 at 48 h strictly < 400 µM for this molecule? `O=C(/C=C/c1cccc(NC(=S)Nc2ccccc2)c1)C[C@@H]1OC[C@@H](O)[C@H](O)[C@H]1O` y

CC50 at 48 h strictly < 400 µM for this molecule? `COc1cc([N+](=O)[O-])ccc1NC(=S)Nc1cccc(/C=C/C(=O)C[C@@H]2O[C@H](CO)[C@@H](O)[C@H](O)[C@H]2O)c1` y

CC50 at 48 h strictly < 400 µM for this molecule? `CC(=O)OC[C@H]1O[C@@H](CC(=O)/C=C/c2ccc(NC(=O)Nc3ccc4ccccc4c3)cc2)[C@H](OC(C)=O)[C@@H](OC(C)=O)[C@@H]1OC(C)=O` n

CC50 at 48 h strictly < 400 µM for this molecule? `CCOC(=O)/C=C/c1cccc(NS(=O)(=O)c2ccc(C)cc2)c1` y

CC50 at 48 h strictly < 400 µM for this molecule? `CC(=O)O[C@@H]1[C@@H](OC(C)=O)[C@H](OC(C)=O)CO[C@H]1CC(=O)/C=C/c1cccc(NC(=S)Nc2ccccc2)c1` y

CC50 at 48 h strictly < 400 µM for this molecule? `CC(=O)O[C@@H]1[C@@H](OC(C)=O)[C@H](OC(C)=O)CO[C@H]1CC(=O)/C=C/c1cccc(NS(=O)(=O)c2ccc(C)cc2)c1` y

CC50 at 48 h strictly < 400 µM for this molecule? `CCOC(=O)/C=C/c1cccc(NC(=O)Nc2ccccc2)c1` y

CC50 at 48 h strictly < 400 µM for this molecule? `CC(=O)OC[C@H]1O[C@@H](CC(=O)/C=C/c2cccc(NS(=O)(=O)c3ccc(C)cc3)c2)[C@H](OC(C)=O)[C@@H](OC(C)=O)[C@@H]1OC(C)=O` n

---

- experimental-protocol: Volume of distribution in Sprague-Dawley rat at 5 mg/kg, iv
- Format: ADME, organism-based
- Set-up: dose 5 mg/kg, route intravenous
- condition-label: in vivo
reported-endpoint: Vd (L/kg)
Report the figure in L/kg without appending any unit label.

Looking for the measured Vd of `COc1ccc(NC(=O)Nc2cccc(/C=C/C(=O)C[C@@H]3O[C@H](CO)[C@@H](O)[C@H](O)[C@H]3O)c2)c([N+](=O)[O-])c1` , can you help? 2.8

---

- experimental-protocol: Systemic clearance in Sprague-Dawley rat at 5 mg/kg, iv
- Type: ADME, organism-based
- Parameters: dose 5 mg/kg, route intravenous
- condition-label: in vivo
reported-endpoint: clearance (L/h/kg)
Report the figure in L/h/kg without appending any unit label.

Looking for the measured clearance of `COc1ccc(NC(=O)Nc2cccc(/C=C/C(=O)C[C@@H]3O[C@H](CO)[C@@H](O)[C@H](O)[C@H]3O)c2)c([N+](=O)[O-])c1` , can you help? 1.02

---

- experimental-protocol: Terminal elimination half-life in Sprague-Dawley rat at 5 mg/kg, iv
- Assay type: ADME, organism-based
- Design: dose 5 mg/kg, route intravenous
- condition-label: in vivo, read-out: beta t1/2 (converted)
reported-endpoint: half-life (h)
Report the figure in h without appending any unit label.

Looking for the measured half-life of `COc1ccc(NC(=O)Nc2cccc(/C=C/C(=O)C[C@@H]3O[C@H](CO)[C@@H](O)[C@H](O)[C@H]3O)c2)c([N+](=O)[O-])c1` , can you help? 7.1

---

- experimental-protocol: Cytotoxicity against african green monkey Vero cells after 2 days by resazurin assay
- Format: cell-based
- condition-label: chlorocebus sabaeus
// classify: if (CC50 at 48 h < 400 µM) met else not met

Record excerpt, results attached:
>  <compound>
CC(=O)OC[C@H]1O[C@@H](CC(=O)/C=C/c2ccc(NC(=S)Nc3ccccc3)cc2)[C@H](OC(C)=O)[C@@H](OC(C)=O)[C@@H]1OC(C)=O

>  <label>
not met

$$$$
>  <compound>
CCN(CC)CCCC(C)Nc1ccnc2cc(Cl)ccc12 (stereo not given)

>  <label>
not met

$$$$

CC50 at 48 h strictly < 400 µM for this compound? `CC(=O)O[C@@H]1[C@@H](OC(C)=O)[C@H](OC(C)=O)CO[C@H]1CC(=O)/C=C/c1cccc(NC(=O)Nc2ccccc2)c1` met

CC50 at 48 h strictly < 400 µM for this compound? `O=C(/C=C/c1cccc(NC(=O)Nc2ccccc2)c1)C[C@@H]1O[C@H](CO)[C@@H](O)[C@H](O)[C@H]1O` met

CC50 at 48 h strictly < 400 µM for this compound? `Cc1ccc(S(=O)(=O)Nc2cccc(/C=C/C(=O)C[C@@H]3OC[C@@H](O)[C@H](O)[C@H]3O)c2)cc1` met

---

- Test system: Heme
- experimental-protocol: Inhibition of heme polymerization in Plasmodium yoelii nigeriensis infected erythrocytes (unknown origin) extract at 100 uM after 4 hrs by spectrophotometry
Reported inhibition values for a set of compounds
Report the figure in % without appending any unit label.

# example entries with known answers
>  <query-smiles>
CC(=O)O[C@@H]1[C@@H](OC(C)=O)[C@H](OC(C)=O)CO[C@H]1CC(=O)/C=C/c1cccc(NC(=O)Nc2ccccc2)c1

>  <inhibition (%)>
76.9

$$$$
>  <query-smiles>
CC(=O)OC[C@H]1O[C@@H](CC(=O)/C=C/c2cccc(NC(=O)Nc3ccccc3)c2)[C@H](OC(C)=O)[C@@H](OC(C)=O)[C@@H]1OC(C)=O

>  <inhibition (%)>
72.5

$$$$
>  <query-smiles>
COc1cc([N+](=O)[O-])ccc1NC(=S)Nc1cccc(/C=C/C(=O)C[C@@H]2O[C@H](COC(C)=O)[C@@H](OC(C)=O)[C@H](OC(C)=O)[C@H]2OC(C)=O)c1

>  <inhibition (%)>
72.1

$$$$

Requested read-out inhibition, target or system Heme, entry `COc1ccc(NC(=O)Nc2cccc(/C=C/C(=O)C[C@@H]3O[C@H](COC(C)=O)[C@@H](OC(C)=O)[C@H](OC(C)=O)[C@H]3OC(C)=O)c2)c([N+](=O)[O-])c1` 92.7
